test system: OVCAR-3 (Ovarian Carcinoma); assay: Bliss excess, mean over the matrix (fraction); higher = more synergy
# binarize Bliss excess: threshold 0.0009 inclusive, high side fulfilled, low side not fulfilled

Some entries whose results are on file:
COc1cccc(OCCCN)c1-c1cc(Nc2cnc(C#N)cn2)n[nH]1 [Prexasertib] + Cc1cc2ncnn2cc1Nc1ncc2c(n1)n(C1CCOCC1)c(=O)n2C [AZD7648] (first compound max 1 µM, 7x7, partner max 10 µM) ... not fulfilled
CC1(C)CCC(CN2CCN(c3ccc(C(=O)NS(=O)(=O)c4ccc(NCC5CCOCC5)c([N+](=O)[O-])c4)c(Oc4cnc5[nH]ccc5c4)c3)CC2)=C(c2ccc(Cl)cc2)C1 [Venetoclax] + Cc1cc2ncnn2cc1Nc1ncc2c(n1)n(C1CCOCC1)c(=O)n2C [AZD7648] (first compound max 1 µM, 7x7, partner max 10 µM) ... not fulfilled
Cc1cc2ncnn2cc1Nc1ncc2c(n1)n(C1CCOCC1)c(=O)n2C [AZD7648] + CN(C)CCCOc1ccc(-c2ccc3ncc4c(c3c2)n(C2CCOCC2)c(=O)n4C)cn1 [AZD0156] (first compound max 10 µM, 7x7, partner max 1 µM) ... fulfilled

Enquiry: Has COc1nnc2ccc(N3CCC(c4ccc(OCCN5CCN(C)C(=O)[C@H]5C)cc4)CC3)nn12 [AZD5153] + Cn1cnc2c(F)c(Nc3ccc(Br)cc3Cl)c(C(=O)NOCCO)cc21 [Selumetinib] (first compound max 1 µM, 7x7, partner max 10 µM) a recorded Bliss excess greater than or equal to 0.0009?
Return: not fulfilled

* * *

test system: COR-L88 (Small Cell Lung Carcinoma); assay: combination Emax (second highest fraction inhibited in the dose matrix, 72 h); higher = more inhibition; extreme values may be limits of the assay
measured endpoint: combination Emax
Answers are plain numbers.

Consider the reported combination Emax for these compounds:
CC1(C)CCC(CN2CCN(c3ccc(C(=O)NS(=O)(=O)c4ccc(NCC5CCOCC5)c([N+](=O)[O-])c4)c(Oc4cnc5[nH]ccc5c4)c3)CC2)=C(c2ccc(Cl)cc2)C1 [Venetoclax] + C=CCn1c(=O)c2cnc(Nc3ccc(N4CCN(C)CC4)cc3)nc2n1-c1cccc(C(C)(C)O)n1 [AZD1775] (first compound max 1 µM, partner max 1 µM) ... 0.939
CCN(CCO)CCCOc1ccc2c(Nc3cc(CC(=O)Nc4cccc(F)c4)[nH]n3)ncnc2c1 [AZD2811] + C[C@@H]1COCCN1C2=NC(=NC(=C2)C3(CC3)[S@](=N)(=O)C)C4=C5C=CNC5=NC=C4 [AZD6738] (first compound max 1 µM, 7x7, partner max 10 µM) ... 0.615

Now consider the entry below.
Enquiry: Hello, I am looking for reported combination Emax with COR-L88 (Small Cell Lung Carcinoma) for C[C@@H](Oc1cc(-c2cnn(C3CCNCC3)c2)cnc1N)c1c(Cl)ccc(F)c1Cl [Crizotinib] + Cn1cnc2c(F)c(Nc3ccc(Br)cc3Cl)c(C(=O)NOCCO)cc21 [Selumetinib] (first compound max 10 µM, 7x7, partner max 10 µM) . Could you help?
Return: 0.409

* * *

I'd appreciate it if you could supply combination Emax values for the items below.
test system: IA-LM (Non-Small Cell Lung Carcinoma); assay: combination Emax (second highest fraction inhibited in the dose matrix, 72 h); higher = more inhibition; extreme values may be limits of the assay
Numbers only.

Consider the reported combination Emax for these compounds:
Cc1c2c(nn1C)CSCc1cc(n(C)n1)CSc1cc(c3ccccc3c1)OCCCc1c(C(=O)O)n(C)c3c-2c(Cl)ccc13 [AZD5991] + Nc1ccn([C@@H]2O[C@H](CO)[C@@H](O)C2(F)F)c(=O)n1 [Gemcitabine] (first compound max 1 µM, 7x7, partner max 0.3 µM) ... 0.261
COc1cc2ncnc(Nc3ccc(F)c(Cl)c3)c2cc1OCCCN1CCOCC1 [Gefitinib] + CC(C)n1c(=O)n(C)c2cnc3cc(F)c(-c4ccc(OCCCN5CCCCC5)nc4)cc3c21 [AZD1390] (first compound max 10 µM, 7x7, partner max 0.3 µM) ... 0.202

Now consider the entry below.
Enquiry: Consider the compound O=C(c1cc(Cc2n[nH]c(=O)c3ccccc23)ccc1F)N1CCN(C(=O)C2CC2)CC1 [Olaparib] + CN(CC[C@H](CSC1=CC=CC=C1)NC2=C(C=C(C=C2)S(=O)(=O)NC(=O)C3=CC=C(C=C3)N4CCC(CC4)[C@H](C5=CC=CC=C5C6=CC=C(C=C6)Cl)O)S(=O)(=O)C(F)(F)F)CCO [AZD4320] (first compound max 10 µM, 7x7, partner max 1 µM) and give its measured combination Emax.
Return: 0.328

* * *

test system: T47D (Breast Carcinoma); experiment: combination Emax (second highest fraction inhibited in the dose matrix, 72 h); higher = more inhibition; extreme values may be limits of the assay
I'd appreciate it if you could supply combination Emax values for the items below.
Answers are plain numbers.

Consider the reported combination Emax for these molecules:
COc1cccc(OCCCN)c1-c1cc(Nc2cnc(C#N)cn2)n[nH]1 [Prexasertib] + C[C@@H]1COCCN1C2=NC(=NC(=C2)C3(CC3)[S@](=N)(=O)C)C4=C5C=CNC5=NC=C4 [AZD6738] (first compound max 1 µM, 7x7, partner max 10 µM) ... 0.374
Cc1c2c(nn1C)CSCc1cc(n(C)n1)CSc1cc(c3ccccc3c1)OCCCc1c(C(=O)O)n(C)c3c-2c(Cl)ccc13 [AZD5991] + CC1(C)CCC(CN2CCN(c3ccc(C(=O)NS(=O)(=O)c4ccc(NCC5CCOCC5)c([N+](=O)[O-])c4)c(Oc4cnc5[nH]ccc5c4)c3)CC2)=C(c2ccc(Cl)cc2)C1 [Venetoclax] (first compound max 1 µM, 7x7, partner max 1 µM) ... 0.434

Now consider the entry below.
Enquiry: Consider the molecule Cc1nc(Nc2ncc(C(=O)Nc3c(C)cccc3Cl)s2)cc(N2CCN(CCO)CC2)n1 [Dasatinib] + CC(=O)Nc1cccc(-n2c(=O)n(C3CC3)c(=O)c3c(Nc4ccc(I)cc4F)n(C)c(=O)c(C)c32)c1 [Trametinib] (first compound max 2 µM, 7x7, partner max 1 µM) and give its measured combination Emax.
Return: 0.344

* * *

test system: NCI-H1963 (Small Cell Lung Carcinoma); test: combination Emax (second highest fraction inhibited in the dose matrix, 72 h); higher = more inhibition; extreme values may be limits of the assay
Binning of combination Emax into classes: lower range = under 0.8, middle range = from 0.8 up to 0.9, upper range = 0.9 and over

Some entries whose results are on file:
COc1cc2c(cc1OCCCCCOc1cc3c(cc1OC)C(=O)N1C=C(C)C[C@H]1C=N3)N=C[C@@H]1CC(C)=CN1C2=O [SG3199] + O=C(c1cc(Cc2n[nH]c(=O)c3ccccc23)ccc1F)N1CCN(C(=O)C2CC2)CC1 [Olaparib] (first compound max 0.001 µM, 7x7, partner max 10 µM) ... lower range
CC1(C)CCC(CN2CCN(c3ccc(C(=O)NS(=O)(=O)c4ccc(NCC5CCOCC5)c([N+](=O)[O-])c4)c(Oc4cnc5[nH]ccc5c4)c3)CC2)=C(c2ccc(Cl)cc2)C1 [Venetoclax] + C1CN(CCC1(C(=O)N[C@@H](CCO)C2=CC=C(C=C2)Cl)N)C3=NC=NC4=C3C=CN4 [Capivasertib] (first compound max 1 µM, 7x7, partner max 3 µM) ... lower range
COc1cccc(OCCCN)c1-c1cc(Nc2cnc(C#N)cn2)n[nH]1 [Prexasertib] + Cc1cc2ncnn2cc1Nc1ncc2c(n1)n(C1CCOCC1)c(=O)n2C [AZD7648] (first compound max 1 µM, 7x7, partner max 10 µM) ... upper range

Enquiry: Record CN(CCO)CC[C@H](CSc1ccccc1)Nc1ccc(S(=O)(=O)NC(=O)c2ccc(N3CCC([C@@H](O)c4ccccc4-c4ccc(Cl)cc4)CC3)cc2)cc1S(=O)(=O)C(F)(F)F [AZD4320] + CN(C)CCCOc1ccc(-c2ccc3ncc4c(c3c2)n(C2CCOCC2)c(=O)n4C)cn1 [AZD0156] (first compound max 1 µM, 7x7, partner max 1 µM) — which class?
Return: upper range

* * *

test system: MM1S (Plasma Cell Myeloma); assay: Bliss excess, mean over the matrix (fraction); higher = more synergy
measured endpoint: Bliss excess
Answers are plain numbers.

CN(CCO)CC[C@H](CSc1ccccc1)Nc1ccc(S(=O)(=O)NC(=O)c2ccc(N3CCC([C@@H](O)c4ccccc4-c4ccc(Cl)cc4)CC3)cc2)cc1S(=O)(=O)C(F)(F)F [AZD4320] + CCN(CCO)CCCOc1ccc2c(Nc3cc(CC(=O)Nc4cccc(F)c4)[nH]n3)ncnc2c1 [AZD2811] (first compound max 1 µM, 7x7, partner max 1 µM) ... 0.118
CN(CCO)CC[C@H](CSc1ccccc1)Nc1ccc(S(=O)(=O)NC(=O)c2ccc(N3CCC([C@@H](O)c4ccccc4-c4ccc(Cl)cc4)CC3)cc2)cc1S(=O)(=O)C(F)(F)F [AZD4320] + CN(C)CCCOc1ccc(-c2ccc3ncc4c(c3c2)n(C2CCOCC2)c(=O)n4C)cn1 [AZD0156] (first compound max 1 µM, 7x7, partner max 1 µM) ... 0.0753

Now consider the entry below.
Enquiry: Consider the molecule NC1(C(=O)N[C@@H](CCO)c2ccc(Cl)cc2)CCN(c2ncnc3[nH]ccc23)CC1 [Capivasertib] + CCN(CCO)CCCOc1ccc2c(Nc3cc(CC(=O)Nc4cccc(F)c4)[nH]n3)ncnc2c1 [AZD2811] (first compound max 10 µM, 7x7, partner max 1 µM) and give its measured Bliss excess.
Return: 0.0257
